Literature roundup of Proto-oncogene tyrosine-protein kinase receptor Ret (Homo sapiens, UniProt P07949) data, read-out IC50.

Worked cases, IC50 given:
Form field - read-out: IC50; system: Proto-oncogene tyrosine-protein kinase receptor Ret (Homo sapiens, UniProt P07949); submitted item: Cc1cc(Nc2cc(C)[nH]n2)nc([C@]2(O)CC[C@@H](C(=O)NCc3ccc(-n4cccn4)nc3)C2)c1 < 10 nM

Item CCOc1cc(-c2nc(C)c(NC(=O)Nc3ccc(CN4CCN(CC)CC4)c(C(F)(F)F)c3)c(C)n2)c[nH]c1=O with Proto-oncogene tyrosine-protein kinase receptor Ret (Homo sapiens, UniProt P07949) - IC50? < 100 nM

Under Proto-oncogene tyrosine-protein kinase receptor Ret (Homo sapiens, UniProt P07949): IC50 value of CC(C)(O)COc1cc(-c2ccc(N3C4CC5CC3CC(NC(=O)c3ncccc3Cl)(C5)C4)nc2)c2c(C#N)cnn2c1 ? ≤ 10 nM

State its IC50 on Proto-oncogene tyrosine-protein kinase receptor Ret (Homo sapiens, UniProt P07949): OC(c1c(F)ccc(F)c1F)c1c[nH]c2ncc(-c3cccnc3)cc12 (stereo not drawn) ≤ 10000 nM

Item COCc1cccc2[nH]c(-c3n[nH]c4ncc(-c5ccc(N6CCOCC6)nc5)cc34)nc12 with Proto-oncogene tyrosine-protein kinase receptor Ret (Homo sapiens, UniProt P07949) - IC50? > 100000 nM

Further cases:
Short answer please: IC50, Proto-oncogene tyrosine-protein kinase receptor Ret (Homo sapiens, UniProt P07949), entry Cc1cc(Nc2cc(C(F)F)cc(N3CC(F)(C(=O)NCc4cnc(-n5cc(F)cn5)cn4)C3)n2)n[nH]1 < 10 nM

Find IC50 (Proto-oncogene tyrosine-protein kinase receptor Ret (Homo sapiens, UniProt P07949)) for the entry CC1(O)CN(c2cc(-c3ccc(N4CCC(C)(NC(=O)c5ncccc5Cl)CC4)nc3)c3c(C#N)cnn3c2)C1 1 nM

Return IC50 measured with Proto-oncogene tyrosine-protein kinase receptor Ret (Homo sapiens, UniProt P07949) given this molecule: Cc1ccccc1C(=O)c1c[nH]c2nccc(-c3cccc(/C=C/C(=O)O)c3)c12 ≤ 10000 nM

Request - read-out IC50 | tested on Proto-oncogene tyrosine-protein kinase receptor Ret (Homo sapiens, UniProt P07949) | molecule COc1ccc(-c2ccnc3[nH]cc(C(=O)c4cccc(Cl)c4Cl)c23)cn1 ≤ 10000 nM

Query the reported IC50 for Proto-oncogene tyrosine-protein kinase receptor Ret (Homo sapiens, UniProt P07949); item: CCOc1ccc(CNC(=O)C2(O)CCN(c3cc(C)cc(Nc4cc(C)[nH]n4)n3)CC2)cc1 10 to 100 nM

====

pIC50: −log10 of the molar value.
Literature roundup of Proto-oncogene tyrosine-protein kinase receptor Ret (Homo sapiens, UniProt P07949) data, read-out pIC50.

GET /values?readout=pIC50&item= CS(=O)(=O)c1ccc(-c2cnc3[nH]ccc3c2)cc1 ≥ 5.00

# query: pIC50 of entry CCOc1cc(-c2ccc(CC(=O)Nc3cc(C(C)(C)C(F)(F)F)no3)c(F)c2)c[nH]c1=O > 7.00

Looking for the measured pIC50 of COc1cccc(C(=O)c2c[nH]c3ncc(-c4cccs4)cc23)c1 , can you help? ≥ 5.00

---
pIC50 lookup needed for CCOc1cc(-c2ccc(NC(=O)Nc3ccc(CO)c(C(F)(F)F)c3)c(F)c2)c[nH]c1=O , thanks. > 7.00

I have this compound here, CCOc1cc(-c2ncc(NC(=O)Nc3ccc(CN4CCCC4)c(C(F)(F)F)c3)c(C)n2)c[nH]c1=O , and I need its recorded pIC50. 6.30 to 7.00

Sample COCc1cccc2[nH]c(-c3n[nH]c4ncc(-c5ccc(F)nc5)cc34)nc12 — what was its pIC50? < 4.00

Returns the measured pIC50 for the input compound. Input: Cc1cc(Nc2cc(C)[nH]n2)nc([C@]2(O)CC[C@@H](C(=O)N[C@@H](C)c3ccc(-n4cc(F)cn4)nc3)OC2)c1 > 8.00

Which pIC50 is listed for COC1(C(=O)NCc2ccc(-n3cc(F)cn3)nc2)CCN(c2nc(Nc3cc(C)[nH]n3)cc(C)c2C#N)CC1 ? > 8.00

Bench note: what pIC50 did Cc1cc(Nc2cc(C)[nH]n2)nc([C@H]2CC[C@@](C)(C(=O)N[C@@H](C)c3ccc(-n4cc(F)cn4)nc3)C2)n1 show? 7.00 to 8.00

// lookup pIC50 for CS(=O)(=O)Nc1cccc(-c2cnc3[nH]cc(C(=O)c4ccc(Cl)cc4)c3c2)c1 ≥ 5.00
